Values from the supplement of paper PMC10037445

Tested on: RAW-Dual
measurementProtocol: NF-kB SEAP reporter activity, fold change vs agonist alone; cytotoxicity flag (confluency mask): not cytotoxic; higher = enhanced NF-kB activity
measurementSetup: agonist: Pam3CSK4 (TLR2/1) 0.1 ug/mL
Over roughly 2,900 compounds, “NF-kB SEAP reporter activity, fold change vs agonist alone” has its median near 0.99; the highest 2% begin near 2.6. This is one part of a sample in which the highest values are shown more often than they occur.
# NF-kB SEAP reporter activity per record follows
Give the figure by itself; no unit, no explanation.

Recorded NF-kB SEAP reporter activity, per entry:
CC1CCOC2Cn3cc(C(=O)NCc4ccc(F)cc4F)c(=O)c(O)c3C(=O)N12 (stereo unspecified) (library stock concentration (final ~1000-fold dilution): 10 mM); 0.921
CC1CCOC2Cn3cc(C(=O)NCc4ccc(F)cc4F)c(=O)c(O)c3C(=O)N12 (stereo unspecified) (library stock concentration (final ~1000-fold dilution): 2 mM); 0.873
C=C1CCC2C(C)(CO)C(O)CC[C@@]2(C)[C@@H]1C/C=C1/C(=O)OCC1O (stereo partly specified) (library stock concentration (final ~1000-fold dilution): 10 mM); 0.161
COc1ccc(-c2oc3c(CC=C(C)C)c(OC4OC(CO)C(O)C(O)C4O)cc(O)c3c(=O)c2OC2OC(C)C(O)C(O)C2O)cc1 (stereo unspecified) (library stock concentration (final ~1000-fold dilution): 10 mM); 1.28
COc1ccc(CCC(=O)N(c2nccc3ccccc23)C2CCCNC2)cc1 (stereo unspecified) (library stock concentration (final ~1000-fold dilution): 10 mM); 1.08
CN(C)C(=O)CCSC(SCCC(=O)O)c1cccc(C=Cc2ccc3ccc(Cl)cc3n2)c1 (stereo unspecified) (library stock concentration (final ~1000-fold dilution): 10 mM); 0.945

Exercise: Item CCCC1CC(C(=O)NC(C(C)Cl)C2OC(SC)C(O)C(O)C2O)N(C)C1 (stereo unspecified) (library stock concentration (final ~1000-fold dilution): 10 mM) has what recorded NF-kB SEAP reporter activity?
Solution: 1.17

Exercise: What measured NF-kB SEAP reporter activity goes with Cc1cc(C)c2c(c1)C(N(Cc1cc(C(F)(F)F)cc(C(F)(F)F)c1)c1nnn(C)n1)CCCN2CC1CCC(C(=O)O)CC1 (stereo unspecified) (library stock concentration (final ~1000-fold dilution): 10 mM) ?
Solution: 0.444

Exercise: # lookup: NF-kB SEAP reporter activity of CC(C)(C)NCC(O)COc1ccccc1C1CCCC1.CC(C)(C)NCC(O)COc1ccccc1C1CCCC1.O=S(=O)(O)O (stereo unspecified) (library stock concentration (final ~1000-fold dilution): 10 mM)
Solution: 0.842

Exercise: # NF-kB SEAP reporter activity lookup, item N=C(N)NCCCC(N)C(=O)NCC(=O)NC(CC(=O)O)C(=O)O (stereo unspecified) (library stock concentration (final ~1000-fold dilution): 10 mM water)
Solution: 0.993

Exercise: I have this molecule here, CC1OC(=O)C(C)C1CC(O)C(C)(O)C1CCC2(O)C3=CC(=O)C4CC(O)C(O)CC4(C)C3CCC12C (stereo unspecified) (library stock concentration (final ~1000-fold dilution): 10 mM) , and I need its recorded NF-kB SEAP reporter activity.
Solution: 1.23
